Please respond with reported MIC S. aureus for every item in the list.
- Test system: Staphylococcus aureus ATCC25923
- Assay type: cell-based
- settings: ATCC25923
Residues, ends and D or L forms follow the SMILES beside them.
One number for each entry, in µg/mL.

// solved cases for MIC S. aureus follow
INSERT INTO assay_data (compound, measurement) VALUES
  ('CC[C@H](C)[C@H](NC(=O)[C@H](CCCNC(=N)N)NC(=O)[C@H](CC(C)C)NC(=O)[C@H](CCC(N)=O)NC(=O)[C@@H](N)C(C)C)C(=O)N[C@@H](CCCNC(=N)N)C(=O)N[C@H](C(=O)N[C@@H](C)C(=O)N[C@H](C(=O)N[C@H](C(=O)N[C@@H](CCCNC(=N)N)C(=O)N[C@@H](C)C(N)=O)[C@@H](C)CC)C(C)C)C(C)C [HH2, VQLRIRVAVIRA] (H-VQLRIRVAVIRA-NH2)', 50),
  ('CC[C@H](C)[C@H](N)C(=O)N[C@@H](CC(C)C)C(=O)N[C@@H](CCCCN)C(=O)N[C@@H](Cc1c[nH]c2ccccc12)C(=O)N[C@@H](CCCCN)C(=O)N[C@@H](Cc1c[nH]c2ccccc12)C(=O)N1CCC[C@H]1C(=O)N[C@@H](Cc1c[nH]c2ccccc12)C(=O)N[C@@H](Cc1c[nH]c2ccccc12)C(=O)N[C@@H](CCCCN)C(=O)N[C@@H](Cc1c[nH]c2ccccc12)C(=O)N[C@@H](CCCNC(=N)N)C(=O)N[C@@H](CCCNC(=N)N)C(N)=O [HH970, ILKWKWPWWKWRR] (H-ILKWKWPWWKWRR-NH2; N-terminus assumed)', 8),
  ('CC[C@H](C)[C@H](N)C(=O)N[C@@H](CC(C)C)C(=O)N1CCC[C@H]1C(=O)N[C@@H](Cc1c[nH]c2ccccc12)C(=O)N[C@@H](CCCCN)C(=O)N[C@@H](CCCCN)C(=O)N1CCC[C@H]1C(=O)N[C@@H](Cc1c[nH]c2ccccc12)C(=O)N[C@@H](Cc1c[nH]c2ccccc12)C(=O)N1CCC[C@H]1C(=O)N[C@@H](Cc1c[nH]c2ccccc12)C(=O)N[C@@H](CCCNC(=N)N)C(=O)N[C@@H](CCCNC(=N)N)C(N)=O [HH113, ILPWKKPWWPWRR] (H-ILPWKKPWWPWRR-NH2; N-terminus assumed)', 31),
  ('CC[C@H](C)[C@H](NC(=O)[C@H](CCCNC(=N)N)NC(=O)[C@H](CC(C)C)NC(=O)[C@H](CCCNC(=N)N)NC(=O)[C@@H](N)C(C)C)C(=O)N[C@@H](CCCNC(=N)N)C(=O)N[C@H](C(=O)N[C@@H](CCCNC(=N)N)C(=O)N[C@H](C(=O)N[C@H](C(=O)N[C@@H](CCCNC(=N)N)C(=O)N[C@@H](CCCCN)C(N)=O)[C@@H](C)CC)C(C)C)C(C)C [HH11, VRLRIRVRVIRK] (H-VRLRIRVRVIRK-NH2; N-terminus assumed)', 6),
  ('CC[C@H](C)[C@H](NC(=O)[C@H](Cc1c[nH]c2ccccc12)NC(=O)[C@H](CC(C)C)NC(=O)[C@H](CCCNC(=N)N)NC(=O)[C@@H](N)C(C)C)C(=O)N[C@@H](CCCNC(=N)N)C(=O)N[C@H](C(=O)N[C@@H](C)C(=O)N[C@H](C(=O)N[C@H](C(=O)N[C@@H](CCCNC(=N)N)C(=O)N[C@@H](C)C(N)=O)[C@@H](C)CC)C(C)C)C(C)C [HH5, VRLWIRVAVIRA] (H-VRLWIRVAVIRA-NH2)', 50),
  ('CC[C@H](C)[C@H](N)C(=O)N[C@@H](CC(C)C)C(=O)N1CCC[C@H]1C(=O)N[C@@H](Cc1c[nH]c2ccccc12)C(=O)N[C@@H](CCCCN)C(=O)N[C@@H](Cc1ccccc1)C(=O)N1CCC[C@H]1C(=O)N[C@@H](Cc1c[nH]c2ccccc12)C(=O)N[C@@H](Cc1c[nH]c2ccccc12)C(=O)N1CCC[C@H]1C(=O)N[C@@H](Cc1c[nH]c2ccccc12)C(=O)N[C@@H](CCCNC(=N)N)C(=O)N[C@@H](CCCNC(=N)N)C(N)=O [HH63, ILPWKFPWWPWRR] (H-ILPWKFPWWPWRR-NH2; N-terminus assumed)', 8);

For each entry beneath this line, provide reported MIC S. aureus.
1. CC[C@H](C)[C@H](NC(=O)[C@H](CCCNC(=N)N)NC(=O)[C@H](CC(C)C)NC(=O)[C@H](CCCNC(=N)N)NC(=O)[C@@H](N)C(C)C)C(=O)N[C@@H](CCCNC(=N)N)C(=O)N[C@H](C(=O)N[C@@H](C)C(=O)N[C@H](C(=O)N[C@H](C(=O)N[C@@H](CCCNC(=N)N)C(=O)N[C@@H](CCCCN)C(N)=O)[C@@H](C)CC)C(C)C)C(C)C [HH8, VRLRIRVAVIRK] (H-VRLRIRVAVIRK-NH2)
2. CC[C@H](C)[C@H](NC(=O)[C@H](CCCNC(=N)N)NC(=O)[C@H](Cc1c[nH]c2ccccc12)NC(=O)[C@H](CCC(N)=O)NC(=O)[C@@H](N)Cc1c[nH]cn1)C(=O)N[C@@H](CCCNC(=N)N)C(=O)N[C@H](C(=O)N[C@@H](C)C(=O)N[C@H](C(=O)N[C@@H](CCCNC(=N)N)C(=O)N[C@@H](CCCNC(=N)N)C(=O)N[C@@H](Cc1c[nH]cn1)C(N)=O)C(C)C)C(C)C [HH14, HQWRIRVAVRRH] (H-HQWRIRVAVRRH-NH2)
3. CC[C@H](C)[C@H](N)C(=O)N[C@@H](Cc1c[nH]c2ccccc12)C(=O)N[C@H](C(=O)N[C@H](C(=O)N[C@@H](Cc1c[nH]c2ccccc12)C(=O)N[C@@H](CCCNC(=N)N)C(=O)N[C@@H](CCCNC(=N)N)C(N)=O)[C@@H](C)CC)C(C)C [HH18, IWVIWRR-NH2] (H-IWVIWRR-NH2; N-terminus assumed)

[6, 25, 25]
